# experimental system: cynomolgus LIV-1 (cynomolgus, UniProt A0A2K5WH46 30-741)
# Sequence (A0A2K5WH46 entry or part of it): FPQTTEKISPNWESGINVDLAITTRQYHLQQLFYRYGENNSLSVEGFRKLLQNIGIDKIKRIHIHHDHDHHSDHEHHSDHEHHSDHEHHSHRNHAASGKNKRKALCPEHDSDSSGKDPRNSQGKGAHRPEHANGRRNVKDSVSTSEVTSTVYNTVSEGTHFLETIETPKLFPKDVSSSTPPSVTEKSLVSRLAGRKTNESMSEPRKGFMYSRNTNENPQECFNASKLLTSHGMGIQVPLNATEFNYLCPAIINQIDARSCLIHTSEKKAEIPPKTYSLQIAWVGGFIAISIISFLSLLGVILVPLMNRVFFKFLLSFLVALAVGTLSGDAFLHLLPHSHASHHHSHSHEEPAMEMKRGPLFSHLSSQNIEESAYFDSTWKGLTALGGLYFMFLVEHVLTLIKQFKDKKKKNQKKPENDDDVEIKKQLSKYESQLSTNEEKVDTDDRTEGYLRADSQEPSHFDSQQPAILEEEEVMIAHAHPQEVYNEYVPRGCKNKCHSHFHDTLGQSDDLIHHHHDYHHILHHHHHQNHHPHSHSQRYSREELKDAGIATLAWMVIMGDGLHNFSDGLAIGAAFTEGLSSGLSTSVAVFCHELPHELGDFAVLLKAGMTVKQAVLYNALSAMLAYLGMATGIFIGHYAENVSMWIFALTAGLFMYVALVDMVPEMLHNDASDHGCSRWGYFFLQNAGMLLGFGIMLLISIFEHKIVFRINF
# experiment description: FACS, cyno LIV-1 cells
reported endpoint: Top (MFI)
Answer format: numeric, MFI implied, no suffix.

Some solved entries appear below for comparison.
binder="290F10G10.p1.Z5 (antibody, V domains shown) VH: EVQLVQSGAEVKKPGASVKVSCKASGYTFTSYWIHWVRQAPGQGLEWMGTIYPGDADTRSTQKFKDRVTVTADKSTSTVYMELSSLRSEDTAVYYCARSLIHDDYDKYYFDYWGQGTTVTVSS VL: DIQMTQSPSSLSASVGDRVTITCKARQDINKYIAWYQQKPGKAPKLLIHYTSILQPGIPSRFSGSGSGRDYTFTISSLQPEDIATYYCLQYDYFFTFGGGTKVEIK" result_number=7370
binder="290F10G10.p1.Z16 (antibody, V domains shown) VH: EIQLVQSGAEVKKPGASVKVSCKASGYTFTSYWIHWVREAPGQGLEWIGTIYPGDADTRSTQKFKDKATVTADKSTSTVYMELSSLRSEDTAVYYCTRSLIHDDYDKYYFDYWGQGTTVTVSS VL: DIQMTQSPSSLSASVGDRVTITCKARQDINKYIAWYQQKPGKAPKLLIYYTSILQPGVPSRFSGSGSGRDYTFTISSLQPEDIATYYCLQYDYFFTFGGGTKVEIK" result_number=6920

Kindly consider the entry below.
Query :: Can you look up the measured Top (MFI) of 290F10G10.p1.Z15 (antibody, V domains shown) VH: EVQLVQSGAEVKKPGASVKVSCKASGYTFTSYWIHWVRQAPGQGLEWIGTIYPGDADTRSTQKFKDKATVTADKSTSTVYMELSSLRSEDTAVYYCTRSLIHDDYDKYYFDYWGQGTTVTVSS VL: DIQMTQSPSSLSASVGDRVTITCKARQDINKYIAWYQHKPGKGPKLLIHYTSILQPGIPSRFSGSGSGRDYTFTISSLQPEDIATYYCLQYDYFFTFGGGTKVEIK for me?
Result :: 7210
